- Assay type: in vivo, human
- details: male, human, plasma, oral, 140 mg, AUC0–∞, placebo phase; 140‐mg ibrutinib dose; geometric mean (geometric CV)
readout: AUC(0-inf) (ng·h/mL)
The reply should contain only the number, in ng·h/mL.

# lookup: AUC(0-inf) of C=CC(=O)N1CCC[C@@H](n2nc(-c3ccc(Oc4ccccc4)cc3)c3c(N)ncnc32)C1 [Ibrutinib, ibrutinib, reference compound] 76.5

====

- Type: in vivo, human
- details: male, human, plasma, oral, AUC0–∞, itraconazole phase, unadjusted; 15‐mg ibrutinib dose; geometric mean (geometric CV)
readout: AUC(0-inf) (ng·h/mL)
The reply should contain only the number, in ng·h/mL.

# lookup: AUC(0-inf) of C=CC(=O)N1CCC[C@@H](n2nc(-c3ccc(Oc4ccccc4)cc3)c3c(N)ncnc32)C1 [Ibrutinib, ibrutinib, reference compound] 81.9

====

- Assay type: in vivo, human
- details: male, human, plasma, oral, 140 mg, AUC0–23 hours, placebo phase; 140‐mg ibrutinib dose; geometric mean (geometric CV)
readout: AUC(0-t) (ng·h/mL)
The reply should contain only the number, in ng·h/mL.

# lookup: AUC(0-t) of C=CC(=O)N1CCC[C@@H](n2nc(-c3ccc(Oc4ccccc4)cc3)c3c(N)ncnc32)C1 [Ibrutinib, ibrutinib, reference compound] 74.4

====

- Type: in vivo, human
- details: male, human, plasma, po
readout: Cmax (ng/mL)
The reply should contain only the number, in ng/mL.

# lookup: Cmax of C=CC(=O)N1CCC[C@@H](n2nc(-c3ccc(Oc4ccccc4)cc3)c3c(N)ncnc32)C1 [Ibrutinib, ibrutinib, reference compound] 20.6

====

- Assay type: in vivo, human
- details: male, human, plasma, oral, AUC0–23 hours, itraconazole phase, unadjusted; 15‐mg ibrutinib dose; geometric mean (geometric CV)
readout: AUC(0-t)

# lookup: AUC(0-t) of C=CC(=O)N1CCC[C@@H](n2nc(-c3ccc(Oc4ccccc4)cc3)c3c(N)ncnc32)C1 [Ibrutinib, ibrutinib, reference compound] 80.9 ng·h/mL

====

- Type: in vivo, human
- details: male, human, plasma, oral, AUC0–∞, itraconazole phase, dose‐adjusted to a 140‐mg dose; geometric mean (geometric CV)
readout: AUC(0-inf)
Field note: include the unit after the figure.

# lookup: AUC(0-inf) of C=CC(=O)N1CCC[C@@H](n2nc(-c3ccc(Oc4ccccc4)cc3)c3c(N)ncnc32)C1 [Ibrutinib, ibrutinib, reference compound] 764 ng·h/mL
